# test-details: qHTS for Inhibitors of TGF-b; also: nearly all actives have a fitted effect of over 65% in size
# settings: HepG2 CAGA-GFP TGF-b/SMAD3 reporter, GFP fluorescence, 18 h, TGF-beta stimulated, 500 pg/mL final; series mostly up to 46.1 µM
Hit rate of the full screen: of about 410,000 compounds, about 5,000 (1.2%) were called active. Not shown: some 13% with an inconclusive outcome. Calls follow the shape of the dose curve; as a rule, active = well fitted inhibition curve with a large enough effect; inconclusive = small, poorly fitted or top-dose-only effect; inactive = no such curve, though single readings can be large or run the other way. The list comes from a sample in which actives are over-represented; it also holds close analogues and randomly drawn compounds.
Classes used: active, inactive

| molecule | category |
| --- | --- |
| Cc1cccnc1C(NC(=O)C1CCN(Cc2ccc(Cl)c(Cl)c2)CC1)c1ccc(Cl)cc1 (stereo not given) | active |
| O=S(=O)(c1ccccc1)N1CCc2ccccc21 | inactive |
| CCn1c(=O)c(=O)n(CC)c2cc(S(=O)(=O)N3CCc4ccccc43)ccc21 | inactive |
| O=C(NC1CC(=O)N(c2ccc(F)cc2)C1)c1cccs1 (stereo not given) | inactive |
| Cn1c(=O)n(C)c2cc(S(=O)(=O)N3CCCc4ccccc43)ccc21 | active |
| CCOC(=O)c1ccccc1NC(=O)c1nn(-c2ccc(OC)c(Cl)c2)c(=O)c2c1c1ccccc1n2C | inactive |
| Cc1ccccc1Cn1c2ccccc2c2cnn(CC(=O)NCc3ccco3)c(=O)c21 | inactive |
| CCN(CC)CCNC(=O)Cn1ncc2c3ccccc3n(Cc3ccccc3C)c2c1=O | active |
| Cc1oc2ccc(O)c(CN3CCC(C)CC3)c2c1C(=O)Nc1ccccc1 | inactive |
| CCCNC(=O)C1CCN(c2nc3ccc(C)cc3[nH]2)CC1 | inactive |

----------
# test-details: qHTS for Inhibitors of TGF-b; also: nearly all actives have a fitted effect of over 65% in size
# settings: HepG2 CAGA-GFP TGF-b/SMAD3 reporter, GFP fluorescence, 18 h, TGF-beta stimulated, 500 pg/mL final; series mostly up to 46.1 µM
About 5,000 (1.2%) of roughly 410,000 compounds were called active. Inconclusive results (about 13%) are left out. Calls come from the whole dose curve; as a rule, active = well fitted inhibition curve with a large enough effect; inconclusive = small, poorly fitted or top-dose-only effect; inactive = no such curve, though single readings can be large or run the other way. Shown is part of a subset that was picked to be rich in actives.
Classes used: active, inactive

| molecule | category |
| --- | --- |
| Cc1cccc(C(=O)NC(=S)N(C)C2CCCCC2)c1 | inactive |
| Cc1ccc(CNC(=O)CSc2c(C)cnc3c2c(=O)n(C)c(=O)n3C)cc1 | inactive |
| Brc1ccc(C2=CC(c3ccco3)n3ncnc3N2)cc1 (centres undefined) | inactive |
| O=C(CC(c1cccs1)N1Cc2ccccc2C1=O)Nc1ccc(F)cc1F (centres undefined) | inactive |
| COC(=O)c1ccc(OC)c(Cn2c(=O)n(Cc3ccccc3)c(=O)c3c2c2cc(OC)ccc2n3C)c1 | inactive |
| Cc1ccccc1CNC(=O)C(=O)NCC(c1cccs1)S(=O)(=O)c1cccs1 (centres undefined) | inactive |
| Cc1ccc(Cn2c(=O)n(CCCC(=O)NCc3ccccc3Cl)c(=O)c3ccccc32)cc1 | inactive |
| Cc1cccc(NC(=S)NCCN(C2CCCCC2)C2CCCC2)c1 | active |
| Fc1ccccc1Cc1ccc(Cl)nn1 | inactive |
| CCOc1cc(/C=C(\C#N)C(=O)Nc2ccccc2C)ccc1OCc1cc(=O)n2nc(CC)sc2n1 | inactive |
| CCCCN1C(=O)C(C)=C(C)C1OCCc1ccc(OC)c(OC)c1 (centres undefined) | inactive |
| Fc1ccc(-c2ccc(NCCN3CCOCC3)nn2)cc1 | inactive |
| COc1ccc(C(=O)Nc2ccc(-n3nncc3-c3ccccc3)cc2)cc1OC | inactive |
| CC(C)(C)c1ccc(C(=O)Nc2ccc3c(c2)CCCN3C(=O)c2cccs2)cc1 | inactive |
| CCOC(=O)c1c(NC(=O)/C(C#N)=C/c2ccccc2)sc2c1CCC2 | inactive |
| Clc1ccc2c(c1)C1=C(C(c3ccncc3)O2)C(c2ccc(Br)cc2)n2ncnc2N1 (centres undefined) | active |
| Cc1nnc(SC(C(=O)c2ccccc2)c2ccccc2)[nH]c1=O (centres undefined) | inactive |
| COc1ccc(OC)c(NC(=O)C2CCN(S(=O)(=O)c3ccc(C)cc3)CC2)c1 | inactive |
| CC(C)(CCl)C(=O)Nc1ccc(Sc2ccc(F)cc2)cc1 | inactive |
| COc1ccc(-c2nc3c4ccccc4n(CC(=O)Nc4ccc(C(C)=O)cc4)c(=O)n3n2)cc1 | inactive |
| Cc1ccc(NC(=O)C(Cc2ccccc2)NS(=O)(=O)c2ccc3c(c2)oc(=O)n3C)cc1C (centres undefined) | inactive |
| CCS(=O)(=O)N1CCc2cc(C(=O)N3CCN(c4ccccc4OC)CC3)ccc21 | inactive |
| CCOc1cccc(NC(=O)c2ccc(F)c(S(=O)(=O)N(CC)c3cccc(C)c3)c2)c1 | inactive |
| Cc1ccc(NC(=O)c2cc3cc(C)ccc3n2C)cc1 | inactive |
| CCCCOc1ccc(CN2C(=O)C(=O)c3cc(Br)cc(C)c32)cc1OC | active |
| COc1ccccc1CNC(=O)NCc1noc2ccc(C)cc12 | inactive |
| COc1cccc2c1C(=O)c1c(O)c3c(c(O)c1C2=O)CC(O)(C(C)=NNC(=O)c1ccc(Cl)c(Cl)c1)CC3OC1CC(N)C(O)C(C)O1 (centres undefined) | active |
| CCOC(=O)C1=C(c2ccccc2)Nc2ncnn2C1c1ccc(Cl)cc1 (centres undefined) | inactive |
| CCOC(=O)N1CCc2c(sc3c2C(=O)NC(c2ccccc2F)N3)C1 (centres undefined) | inactive |

----------
# test-details: qHTS for Inhibitors of TGF-b; also: nearly all actives have a fitted effect of over 65% in size
# settings: HepG2 CAGA-GFP TGF-b/SMAD3 reporter, GFP fluorescence, 18 h, TGF-beta stimulated, 500 pg/mL final; series mostly up to 46.1 µM
The whole screen tested about 410,000 compounds, of which about 5,000 (1.2%) were called active. Another 13% or so got no clear call; they are omitted. Calls follow the shape of the dose curve; as a rule, active = well fitted inhibition curve with a large enough effect; inconclusive = small, poorly fitted or top-dose-only effect; inactive = no such curve, though single readings can be large or run the other way. What follows is part of a selection rich in actives, with near analogues and random picks from the rest.
Classes used: YES for active, NO for inactive

| compound | category |
| --- | --- |
| COc1cc(OC)c(NC(=O)Cc2ccc(-n3c(C)nc4cccnc43)cc2)cc1Cl | NO |
| CN(C(=O)CCN1C(=O)/C(=C/c2ccccc2F)SC1=S)C1CCS(=O)(=O)C1 (stereo not drawn) | NO |
| COc1ccc(C(=O)Nc2onc3c2CCCC3)cc1 | NO |
| Cc1ccc(OCC(=O)OCc2cc(=O)n3nc(C4CC4)sc3n2)cc1C | NO |
| CC(Nc1nc(C(F)(F)F)nc2ccccc12)c1cccs1 (stereo not drawn) | YES |
| O=C(C1CCCN(S(=O)(=O)c2cccc3nonc23)C1)N1CCN(c2ccccc2F)CC1 (stereo not drawn) | NO |
| CSc1ccc(CCNC(=O)c2cc(C)nc3c2c(C)nn3-c2cccc(F)c2)cc1 | NO |
| CCOc1ccccc1NC(=O)CCn1cnnn1 | NO |
| COc1cc(C(=O)N2CCC(c3ccncc3)CC2)cc(OC)c1OC | NO |
| CN(C)c1nc(=Nc2cccc(Cl)c2)ss1 | YES |
| COC(=O)c1c(NC(=O)c2cc(=O)c3c(C)cc(C)cc3o2)sc2c1CCCC2 | NO |
| COc1cc(OC)c(NC(=O)N2CC3CCCN3c3ccccc32)cc1Cl (stereo not drawn) | NO |
| O=S(=O)(NCc1ccccn1)c1ccc(Br)s1 | NO |
| O=C1/C(=C/c2cccs2)SC(=S)N1C1CCS(=O)(=O)C1 (stereo not drawn) | YES |
| Oc1ccc(N2CCN(C(=S)NCc3ccccc3)CC2)cc1 | NO |
| CCN(C(=O)Cn1cc(S(=O)(=O)N2CCN(c3ccccc3F)CC2)c2ccccc2c1=O)c1ccc(C)c(C)c1 | NO |
| Cc1nn(-c2ccc(F)cc2)c(-n2cccc2)c1C(=O)N1CCN(c2ccccc2)CC1 | NO |
| CCOc1c(Nc2cccc(Cl)c2)c(=O)c1=O | NO |
| O=C(Nc1ccc2nc(SCCOc3ccccc3Cl)sc2c1)c1ccco1 | NO |
| CCN(C(=O)CN1C(=O)/C(=C/c2ccc(F)cc2)SC1=S)C1CCS(=O)(=O)C1 (stereo not drawn) | NO |
| CC(C)C12CN3CC(C(C)C)(CN(C1)C3c1ccc(OCc3ccccc3)cc1)C2=O (stereo not drawn) | NO |
| COc1ccccc1-c1cc2nc(C)c(CCC(=O)O)c(C)n2n1 | NO |
| O=C(NCCCO)C(=O)Nc1c2c(nn1-c1ccc(F)cc1)CSC2 | NO |
| CCc1ccc(NC(=O)CSc2nc3c([nH]c4ccccc43)c(=O)n2-c2cccc(OC)c2)cc1 | NO |
| COc1ccc2oc(=O)c(-c3cn4c(n3)sc3cc(OC)ccc34)cc2c1 | NO |
| COc1ccc(CCNC(=O)CCc2c(C)nc3c(c(C)nn3-c3ccc(C)c(C)c3)c2C)c(OC)c1OC | NO |
| Oc1ccc(CNc2ccccc2O)cc1 | YES |
| CC(C)c1ccc(NC(=O)C2CCN(c3nc(-c4ccc(C(C)C)cc4)no3)CC2)cc1 | NO |
| Cc1cc(C)cc(NC(=O)Cc2csc(C)n2)c1 | NO |
| CC(Nc1nc(N2CCN(CCO)CC2)nc2ccccc12)c1ccccc1 (stereo not drawn) | NO |
| CSc1ccc(C2c3c(oc4ccccc4c3=O)C(=O)N2CCCN2CCOCC2)cc1 (stereo not drawn) | NO |
| O=S(=O)([N-]c1nc2ccccc2nc1-[n+]1ccc(Cc2ccccc2)cc1)c1ccc(Br)s1 | YES |
| COc1ccc(S(=O)(=O)c2c(Nc3cccc(Cl)c3)sc(C(=O)c3ccccc3)c2N)cc1 | NO |
| Cc1cccc(Cn2c(CN3CCC(C(=O)NCc4ccccc4Cl)CC3)cc3ccccc32)c1 | NO |
| Cc1cccc(N2C(=O)N3[C@H](c4ccc(F)cc4)[C@@H]4C(=O)N(C5CCCCC5)C(=O)[C@@H]4[C@]3(Cc3ccccc3)C2=O)c1 | NO |
| N#Cc1ccccc1Cn1cnc2nc3c(cc2c1=O)CCCC3 | NO |
| Cc1cc(C(=O)Nc2cccc(C(F)(F)F)c2)c2c(C)nn(-c3cccc(F)c3)c2n1 | YES |
| CC(=O)c1ccc(NC(=O)CSc2c(C(C)C)cnc3c2c(=O)n(C)c(=O)n3C)cc1 | NO |
| COc1ccc(-c2nnc(SCC(=O)Nc3ccc(C(C)C)cc3)nc2-c2ccc(OC)c(OC)c2)cc1OC | NO |
| COc1ccc(NC(=O)c2sc3nc[nH]c(=O)c3c2C)cc1 | NO |
| OCCCNc1nccc(-c2cc(Nc3cccc(Cl)c3)ncn2)n1 | YES |
| CN(C)c1cccc2ccccc12 | NO |
| COc1ccc(OC)c(-n2nnc3c(sc4nc(C)c(Br)c(C)c43)c2=O)c1 | NO |

Origin of values: PubChem BioAssay AID588855
